Dear all, this message contains IC50 results, target or system Acetylcholinesterase (Electrophorus electricus).
Answer in µM, number only, no unit symbol.

[[record]]
smiles_structure = "Cc1ccc(OCc2nc(CN(CC(C)C)C(=O)c3ccc4c(c3)OCO4)cs2)cc1"
experimental_system = "Acetylcholinesterase (Electrophorus electricus)"
quantitative_result = 11


Continue with the compound presented below.
IN: Please look up its IC50: CCc1noc(-c2cnc3nc(C)ccc3c2Nc2ccc3c(c2)OCCO3)n1
OUT: 1.56

----------
Catalogue of pIC50 values
target: Cholinesterase (Equus caballus); assay: Inhibition of equine serum BChE pre-incubated for 5 mins before butyrylthiocholine iodide substrate addition and measured after 2 mins
Scale for pIC50: -log10 of concentration given in mol/L; no unit attached.

The following compounds have reported results that may help.
[[record]]
smiles_structure = "Cc1ccc(OCc2nc(CN(CC(C)C)C(=O)c3ccc4c(c3)OCO4)cs2)cc1"
quantitative_result = 4.75

[[record]]
smiles_structure = "CCCN(Cc1csc(COc2ccc(C)cc2)n1)C(=O)c1ccc2c(c1)OCO2"
quantitative_result = 4.85

[[record]]
smiles_structure = "Cc1ccc2cc(NC(=O)Cn3c(-c4nonc4N)nc4ccccc43)ccc2n1"
quantitative_result = 6.74


// below: pIC50 requested for another compound
IN: # get_value(readout='pIC50', item= COc1ccc(-c2cccc(-n3cncc3C(=O)N3Cc4ccccc4C3)c2)cc1OC )
OUT: 4.76

----------
molecular target: Cholinesterase (Homo sapiens, UniProt P06276)
Sequence (P06276 whole entry): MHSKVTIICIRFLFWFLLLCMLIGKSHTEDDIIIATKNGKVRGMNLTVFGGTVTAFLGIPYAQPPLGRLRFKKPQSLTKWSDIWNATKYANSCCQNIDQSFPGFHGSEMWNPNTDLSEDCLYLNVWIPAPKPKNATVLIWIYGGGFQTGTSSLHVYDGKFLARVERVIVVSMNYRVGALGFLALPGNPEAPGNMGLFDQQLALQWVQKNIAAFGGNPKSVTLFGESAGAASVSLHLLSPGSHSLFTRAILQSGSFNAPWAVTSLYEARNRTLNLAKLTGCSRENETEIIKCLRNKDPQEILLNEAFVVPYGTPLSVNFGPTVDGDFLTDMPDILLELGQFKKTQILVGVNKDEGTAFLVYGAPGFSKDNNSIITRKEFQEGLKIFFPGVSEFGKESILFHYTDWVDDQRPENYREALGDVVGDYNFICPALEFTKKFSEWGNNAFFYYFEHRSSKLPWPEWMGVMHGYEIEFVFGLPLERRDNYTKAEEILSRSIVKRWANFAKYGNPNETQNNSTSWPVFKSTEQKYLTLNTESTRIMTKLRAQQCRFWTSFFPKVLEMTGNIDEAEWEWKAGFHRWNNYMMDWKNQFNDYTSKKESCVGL
measured-property: pIC50
Please report pIC50 as the negative decimal logarithm of the molar concentration, giving only the number.

IN: Query: pIC50; subject: Cc1ccc2cc(NC(=O)Cn3c(-c4nonc4N)nc4ccccc43)ccc2n1
OUT: 6.49

----------
molecular target: Cholinesterase (Equus caballus, UniProt P81908); experiment: Noncompetitive inhibition of equine serum BChE pre-incubated for 5 mins before butyrylthiocholine iodide substrate addition and measured after 2 mins by Lineweaver-Burk plot analysis
Sequence (P81908 whole entry): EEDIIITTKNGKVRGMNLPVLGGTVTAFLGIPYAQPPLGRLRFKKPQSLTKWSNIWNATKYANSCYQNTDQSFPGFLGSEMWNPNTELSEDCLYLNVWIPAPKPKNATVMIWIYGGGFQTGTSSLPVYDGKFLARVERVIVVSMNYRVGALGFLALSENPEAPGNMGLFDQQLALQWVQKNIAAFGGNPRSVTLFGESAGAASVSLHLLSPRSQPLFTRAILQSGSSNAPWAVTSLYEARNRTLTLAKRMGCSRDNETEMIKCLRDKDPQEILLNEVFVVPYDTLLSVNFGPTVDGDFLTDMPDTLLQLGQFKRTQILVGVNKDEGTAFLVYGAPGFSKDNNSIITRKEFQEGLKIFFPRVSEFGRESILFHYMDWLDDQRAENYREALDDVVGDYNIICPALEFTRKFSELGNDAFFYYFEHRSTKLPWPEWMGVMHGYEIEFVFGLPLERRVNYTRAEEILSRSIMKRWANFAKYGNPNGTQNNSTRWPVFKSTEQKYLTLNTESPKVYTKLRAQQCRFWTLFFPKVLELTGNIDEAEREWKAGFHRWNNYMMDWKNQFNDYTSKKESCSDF
measured-property: Ki (nM)
Report as a plain number; the unit nM is understood.

IN: For the compound Cc1ccc2cc(NC(=O)Cn3c(-c4nonc4N)nc4ccccc43)ccc2n1 , what Ki is on record?
OUT: 232

----------
inhibition for assorted compounds
target: UniProt:P81908; test: Inhibition of equine serum BChE at 10 uM pre-incubated for 5 mins before butyrylthiocholine iodide substrate addition and measured after 2 mins
Numbers only here, please. The scale is %.

[[record]]
smiles_structure = "CCCN(Cc1csc(COc2ccc(C)cc2)n1)C(=O)c1ccc2c(c1)OCO2"
measured_property = "inhibition"
quantitative_result = 54.8


IN: Recorded inhibition of CCc1noc(-c2cnc3nc(C)ccc3c2Nc2ccc3c(c2)OCCO3)n1 , please.
OUT: 1.63

IN: What would you report for Cc1ccc(-c2nc3ccccc3o2)cc1NCc1cc(Cc2ccccc2)ccc1O ?
OUT: 8.49

IN: Same read-out for COCCN(Cc1csc(COc2ccc(C)cc2)n1)C(=O)c1ccc(OC)cc1 ?
OUT: 7.17

IN: Try CN(CCc1noc(-c2cc3ccccc3[nH]2)n1)C(=O)c1ccc(C(C)(C)C)cc1 next.
OUT: 20.3

IN: And the next one, CN(CCc1noc(-c2cc3ccccc3[nH]2)n1)C(=O)c1ccc(N(C)C)cc1 ?
OUT: 35.4

IN: Try the compound COc1cc2c(cc1NC(=O)C(=O)c1c(-c3ccccc3)[nH]c3ccccc13)oc1ccccc12
OUT: 0.73

IN: Queued: COc1ccc(-c2cccc(-n3cncc3C(=O)N3Cc4ccccc4C3)c2)cc1OC
OUT: 53.4

IN: What about COc1ccc(-c2noc(CN(C(=O)c3ccc4c(c3)OCO4)C3CCCCC3)n2)cc1 ?
OUT: 4.33
